Settings: in isopropanol, 278.15 K
measured attribute: solubility (mole fraction)
Respond using a number only.

**Q:** Request the reported solubility (mole fraction) associated with O=Cc1cccc([N+](=O)[O-])c1
**A:** 0.0086

====

Details: in ethanol, 288.15 K
measured attribute: solubility (mole fraction)
Respond using a number only.

**Q:** Request the reported solubility (mole fraction) associated with O=Cc1cccc([N+](=O)[O-])c1
**A:** 0.0844

====

Conditions: in ethyl acetate, 290.65 K
measured attribute: solubility (mole fraction)
Respond using a number only.

**Q:** Request the reported solubility (mole fraction) associated with O=Cc1cccc([N+](=O)[O-])c1
**A:** 0.316
